This collection of values is drawn from PubChem BioAssay (NCI).

System: SF-268 CNS
Experiment: NCI-60 one-dose screen, 48 h (100 = growth as untreated, 0 = no growth, -100 = all killed)
Conditions: 10 µM unless noted
The panel holds about 83,000 compounds, 20% with a hit somewhere; the sample as a whole holds those more often. Calls of active or inactive are those of the source. The calls were made as follows: active = growth percent below 10; inactive = the rest.
PROPERTY MEASURED: growth

// worked examples, growth included
O=C1CSC(c2ccc(O)cc2)N1c1nnc(Cn2cnnc2)o1 (stereo unspecified) :: 70.3% (inactive)
CNC(=O)c1c(NC(=O)c2ccc(C(C)(C)C)cc2)sc2c1CCC(=O)C2 :: 14% (inactive)
Cc1ccc(S(=O)(=O)NN/C(N)=N\S(=O)(=O)c2cc(C)c(Cl)cc2SCc2ccccc2)cc1 :: 102% (inactive)
COc1ccc(OC)c(Nc2nc3nonc3nc2Nc2cc(OC)ccc2OC)c1 :: 45.6% (inactive)
COc1ccc(-c2nnc(SCC(=O)NC3=NN=C(c4ccccc4)CS3)o2)cc1 :: 94.2% (inactive)

Field: growth (SF-268 CNS). Entry: O=C1Nc2ccccc2SC1c1ccccc1Cl (stereo unspecified) 87.8% (inactive)

* * *

Tested on: SNB-19 CNS
Assay: NCI-60 one-dose screen, 48 h (100 = growth as untreated, 0 = no growth, -100 = all killed)
Conditions: 10 µM unless noted
Compounds without any hit were thinned out: in the full panel of roughly 83,000, 20% have a hit.
Reported growth is given for each of the following compounds.
Respond numerically; units are % and should not be typed.

Returns the measured growth for the input compound. Input: CCCNCC(=O)Nc1ccc(C(=O)OC(C)(C)CC)cc1 99.7

Requested read-out: growth. Entry: Cc1c(C(=O)O[C@H]2[C@@H]3[C@H](C)CC[C@H]3[C@]3(C)O[C@@]2(C2CCCCC2)C[C@H]3OC(=O)CO)ccc2ccccc12 60.8

Recorded growth of COc1cc2c(c(OC)c1OC)C(=O)/C(=C/c1cc(C)c(O)c(C)c1)S2 , please. 39.2

Entry N#C/C=C(\c1ccc([N+](=O)[O-])cc1)n1nnc2cc(Cl)c(Cl)cc21 : reported growth = ? 41.5

So what does the record say about growth for CC1(C)CC(=O)c2c(ccc(C(=O)C[C@H](N)CO)c2N)O1 ? 34.7

* * *

Tested on: 786-0 renal
Assay: NCI-60 one-dose screen, 48 h (100 = growth as untreated, 0 = no growth, -100 = all killed)
Details: 10 µM unless noted
Compounds without any hit were thinned out: in the full panel of roughly 83,000, 20% have a hit.
Reported growth values for a set of molecules
Reply with just the number (in %).

Previously resolved entries follow.
COC(=O)/C(=C\c1ccc(OC)cc1)C(=O)N1c2ccccc2Sc2ccccc21 :: 70.5
COc1cc(C(=O)/C=C/c2c(-c3ccc(F)cc3)nc3ncccn23)cc(OC)c1OC :: 70.7
CCOC(=O)N1CCc2c(sc3c2C(=O)N[C@H](c2ccc(OC)cc2)N3)C1 :: 97.8

Param item = Cc1cc(Cl)nc(N(CCCNc2ccnc3cc(Cl)ccc23)Cc2ccccn2)n1 ; retrieve measured growth. 47.4

Form field: reported growth of CCCc1cc(=O)oc2c3c(c4c(c12)OC(C)(C)C=C4)O[C@@H](C)[C@H](C)C3=O 72.8

Name the recorded growth for CSc1ccc(Cl)c(C(=O)Nc2sccc2C(N)=O)c1 . 94.2

* * *

Known growth of a selection of compounds
Tested on: OVCAR-4 ovarian
Experiment: NCI-60 one-dose screen, 48 h (100 = growth as untreated, 0 = no growth, -100 = all killed)
Conditions: 10 µM unless noted
Compounds without any hit were thinned out: in the full panel of roughly 83,000, 20% have a hit.
Write the answer as a number in %, unit excluded.

// below: answered compounds
Cc1[nH]c(-c2nc3ccccc3[nH]2)c(C)c1C(=O)N1CCOCC1 :: 99.8
Cc1cc(C(c2ccccc2)c2ccccc2)ccc1NS(=O)(=O)c1ccccc1 :: 98.5
CCCCN(CCCC)CCCn1c(=O)c2sc3ncccc3c2n2nnc(-c3ccccc3)c12 :: 103

Continue with the compound presented below.
Return reported growth; argument: CC(C)OC(=O)OCOP(=O)(OCOC(=O)OC(C)C)C1CCCN(O)C1=O (centres undefined) 36

* * *

Tested on: ACHN renal
Experiment: NCI-60 one-dose screen, 48 h (100 = growth as untreated, 0 = no growth, -100 = all killed)
Details: 10 µM unless noted
Compounds without any hit were thinned out: in the full panel of roughly 83,000, 20% have a hit.
PROPERTY MEASURED: growth (%)
I only need the number, in %, no unit after it.

The following compounds have reported results that may help.
C/C(Cc1ccc(Cl)cc1)=C(/c1ccc(Cl)cc1)c1ccc(OCCN(C)C)cc1 :: 82.8
CC(=O)Nc1ccc(C(=O)/C=C/c2ccccc2)cc1 :: 94.6
COc1ccc(/C(C)=C(\c2ccc(Cl)cc2)c2ccc(OCCN3CCCC3)cc2)cc1F :: 50.9
CN(C)CCC(O)(Cc1ccccc1)c1ccccc1 (stereo not given) :: 101

Suppose we examine the compound O=C1c2ccccc2C(=O)c2cc(Cn3cc[n+](Cc4ccc5ccccc5c4)c3)ccc21 ; what growth value has been reported? 108

Item under review: C[C@@H]1C(=O)N(C[C@H](Cc2ccccc2)NC(=O)OCc2ccccc2)[C@]1(Cc1ccccc1)C(=O)OC(C)(C)C . Reported growth? 75.2

Which growth is listed for Clc1ccc(-c2nnc(-c3ccco3)o2)cc1 ? 100

What value of measured growth is listed for OC(COc1cccc2ccccc12)CN1CCN(c2ccccc2)CC1 (stereo not given) ? 104

Please report the recorded growth for CCNCCNc1cc(-c2ccc(C(F)(F)F)cc2)c(C#N)c2nc3cc(Cl)c(Cl)cc3n12 . -100

Query: growth; subject: Cc1cnc(Nc2ccc(OCCN3CCCC3)cc2)nc1NCc1ccco1 79.4

* * *

# growth listing for each entry below
Tested on: SW-620 colon
Experiment: NCI-60 one-dose screen, 48 h (100 = growth as untreated, 0 = no growth, -100 = all killed)
Conditions: 10 µM unless noted
The panel holds about 83,000 compounds, 20% with a hit somewhere; the sample as a whole holds those more often.
Quick note: give the figure in %, leave out the unit.

Past entries and their recorded results:
COc1cc(C(=O)/C=C/c2c(-c3ccc(F)cc3)nc3ncccn23)cc(OC)c1OC :: 32.2
Nc1ccc(-c2cc3c(Nc4ccc(OCc5cccc(F)c5)c(Cl)c4)ncnc3s2)cc1 :: 74.1
O=C(NCc1cccnc1)c1cc(-c2csc3c(=O)cc(N4CCOCC4)oc23)cc2c1OCCO2 :: 46.9

Param item = COc1ccc(/C(C)=N/NS(=O)(=O)c2ccc(C)cc2)cc1OC ; retrieve measured growth. 102

Requested read-out: growth. Entry: Clc1ccc2c(NCCCN3CCN(c4nc(-n5ccnc5)nc5ccccc45)CC3)ccnc2c1 -52.9

Need growth of COc1ccc(-c2nnc(-c3ccc4c(c3)nc(-c3ccccc3)n4C3CCCCC3)o2)cc1 , thanks. 71.3

Name the recorded growth for CNC(=O)c1c(NC(=O)c2ccc(C(C)(C)C)cc2)sc2c1CCC(=O)C2 . -62.3

Consider the compound CCNCCNc1cc(-c2cccc(C(F)(F)F)c2)c(C#N)c2nc3ccccc3n12 and give its measured growth. -67.3

* * *

Test system: NCI/ADR-RES ovarian
Test: NCI-60 one-dose screen, 48 h
Details: 10 µM unless noted
Method: Growth inhibition of the NCI/ADR-RES human […] tumor cell line is measured as a screen for anti-cancer activity. Cells are grown in 96 well plates and exposed to the test compound for 48 hours. Compounds are tested at a single concentration, which is 10^-5 M for most compounds. The reported endpoint is percent growth (GI% or GIPRCNT), where numbers from 0 - 100% represent growth inhibition, and numbers from -100% - 0 represent cell death. For example, a value of 40 represents 60% growth inhibition. […]
About 83,000 compounds went through this panel and 20% of them were active in at least one assay; those are over-represented in the sample as a whole. Active and inactive are the calls of the source. The calls were made as follows: active = growth percent below 10; inactive = the rest.
Answer with one of the outcomes True (active), False (inactive)

Short answer needed: outcome of this test for COc1cccc(/C=C2\COc3ccc(O)cc3C2=O)c1OC ? False

What did the test return for CC(=O)Nc1ccc(-c2cc3c(NCc4ccc(F)cc4)ncnc3s2)cc1 ? False

Record request — test call for CCn1c(Sc2nnc(Nc3ccccc3)s2)nc2c1c(=O)n(C)c(=O)n2C False

For this compound, state the assay outcome: CC(C)OCCCNCC(=O)Nc1ccc(S(=O)(=O)c2ccc(NC(=O)CNCCCOC(C)C)cc2)cc1 False

Which outcome was entered for the compound CC(C)N(CCOC(=O)Nc1ccccc1Cl)C(C)C in this test? False

Hi, sorry to bother you, what did the test record for CCCCN(Cc1ccc(C(=O)NO)cc1)C(=O)Nc1ccc(OCCCCCCCCCn2cc(CCCCC(=O)N[C@H](C(=O)N3C[C@H](O)C[C@H]3C(=O)NCc3ccc(-c4scnc4C)cc3)C(C)(C)C)nn2)cc1 ? False

What did the test return for N#Cc1c(NC(=O)c2ccc(Br)cc2)sc2c1CCCC2 ? False

GET /call?item= CCn1c(Sc2nnc(NC(=O)CSC(=S)N3CCCCC3)s2)nc2c1c(=O)n(C)c(=O)n2C returns the recorded outcome of this test. False

Record request — test call for COc1ccc(/C=C(\C#N)n2nnc3ccccc32)cc1 True
